The following compounds have recorded GI50 on HCT-15.

The examples below pair each entry with its known result.
COMPOUND: C=CCC1(OC(C)=O)C2OC(=O)C1(O)OCC2O (stereo not given)
TARGET UNDER TEST: HCT-15
GI50: > 100 µM

COMPOUND: COC1(OC)C2(Cl)C(Cl)=C(Cl)C1(Cl)C1c3ccc(C(C)=O)c4cccc(c34)C12 (stereo not given)
TARGET UNDER TEST: HCT-15
GI50: 6.24 µM

COMPOUND: CC(C)(Cl)C(Cl)CC/C(CBr)=C(\Cl)CBr (stereo not given)
TARGET UNDER TEST: HCT-15
GI50: 1.75 µM

Lab note: need GI50 with HCT-15 for entry COC(=O)[C@@H]1C[C@H]([Se]c2ccccc2)CN1S(=O)(=O)c1ccc(C)cc1 , please look it up.
> 100 µM

Lab note: need GI50 with HCT-15 for entry CN1CCN(CCCCN2c3ccccc3Sc3cc(N=[N+]=[N-])ccc32)CC1 , please look it up.
2.28 µM
